- PROTOCOL TEXT: Bioavailability Test: plasma levels after oral 60 mg capsules of different trilostane particle size
- Assay type: in vivo, volunteers
- MEASUREMENT CONDITIONS: human, plasma, po, 120 mg, particle size 10 µm; 120 mg trilostane (2 x 60 mg capsules) oral, empty stomach, eight volunteers; plasma; read-out: Trilostane AUCo^24
ENDPOINT NAME: AUC at 24 h (µg·h/mL)

INSERT INTO results (given_smiles, unit_label, test_result) VALUES
  ('C[C@]12CC[C@H]3[C@@H](CC[C@@]45O[C@@H]4C(O)=C(C#N)C[C@]35C)[C@@H]1CC[C@@H]2O', 'µg·h/mL', 1600);

====

- PROTOCOL TEXT: Bioavailability Test: plasma levels after oral 60 mg capsules of different trilostane particle size
- Type: in vivo, volunteers
- MEASUREMENT CONDITIONS: human, plasma, po, 120 mg, particle size 100 µm; 120 mg trilostane (2 x 60 mg capsules) oral, empty stomach, eight volunteers; plasma; read-out: Trilostane AUCo^24
ENDPOINT NAME: AUC at 24 h (µg·h/mL)

INSERT INTO assay_data (given_smiles, unit_label, test_result) VALUES
  ('C[C@]12CC[C@H]3[C@@H](CC[C@@]45O[C@@H]4C(O)=C(C#N)C[C@]35C)[C@@H]1CC[C@@H]2O', 'µg·h/mL', 200);

====

- PROTOCOL TEXT: Bioavailability Test: plasma levels after oral 60 mg capsules of different trilostane particle size
- Type: in vivo, volunteers
- MEASUREMENT CONDITIONS: human, plasma, po, 120 mg, particle size 45 µm; 120 mg trilostane (2 x 60 mg capsules) oral, empty stomach, eight volunteers; plasma; read-out: Trilostane AUCo^24
ENDPOINT NAME: AUC at 24 h (µg·h/mL)

INSERT INTO results (compound, endpoint_name, test_result) VALUES
  ('C[C@]12CC[C@H]3[C@@H](CC[C@@]45O[C@@H]4C(O)=C(C#N)C[C@]35C)[C@@H]1CC[C@@H]2O [Trilostane]', 'AUC at 24 h', 600);
